system: Androgen receptor (Homo sapiens)
assay.summary: qHTS assay to identify small molecule antagonists of the androgen receptor (AR) signaling pathway using the MDA cell line (AID 743042; also: % is scaled to controls: 0 for no effect and ±100 for the full control effect; nearly all actives have a fitted effect of over 55% in size)
measurement.setup: MDA-kb2 AR-luc, MMTV luciferase, R1881 antagonist, 16 h; series mostly up to 70.3 µM
Records with an inconclusive call do not appear. Activity calls are given as the source filed them. Calls follow the shape of the dose curve; as a rule, active = well fitted inhibition curve with a large enough effect in the repeat runs; inconclusive = weak or mixed curves, or effect the other way; inactive = no such curve, though single readings can be large or run the other way.
measured.endpoint: outcome

molecule=Oc1ccc(Cl)c2c1CCC2 system="Androgen receptor (Homo sapiens)" result=inactive
molecule=NC(=O)C1c2ccccc2CCc2ccccc21 system="Androgen receptor (Homo sapiens)" result=inactive
molecule=NCCCC[C@H](NC(=O)[C@@H]1CCCN1C(=O)[C@@H]1CSSC[C@H](N)C(=O)N[C@@H](Cc2ccc(O)cc2)C(=O)N[C@@H](Cc2ccccc2)C(=O)N[C@@H](CCC(N)=O)C(=O)N[C@@H](CC(N)=O)C(=O)N1)C(=O)NCC(N)=O system="Androgen receptor (Homo sapiens)" result=inactive

---

Test system: estrogen-related receptor alpha (ERRalpha) with PGC-1alpha coactivator, human
assay.summary: qHTS assay to identify small molecule antagonists of the estrogen related receptor signaling pathway with the pleiotropic PPARgamma coactivator (PGC) (AID 1224821); also: nearly all actives have a fitted effect of over 50% in size
measurement.setup: ERR/PGC reporter cell line, luciferase, antagonist mode; series mostly up to 46.1 µM
Method: National Center for Advancing Translational Sciences [NCATS] NIH Chemical Genomics Center [NCGC] U.S. Environmental Protection Agency [EPA] National Institutes of Environmental Health Sciences [NIEHS] National Toxicology Program [NTP] […] The PGC/ERR cells were dispensed at 2,000 cells/5 ul/well in 1536-well white plates using a Multidrop dispenser. […] After 30 min incubation at room temperature, the luminescence intensity in the plates was measured using a ViewLux plate reader.
Records with an inconclusive call do not appear. The source made the active and inactive calls. Calls follow the shape of the full dose curve.
Bench note: report the call from t (active), f (inactive)

compound=O=C(/C=C/c1ccc(O)c(O)c1)OCCc1ccccc1 classification=f
compound=CCCCC[C@H](CC(=O)NO)C(=O)N[C@H](C(=O)N1CCC[C@H]1CO)C(C)C classification=t
compound=CC(C)(C)c1cc(/C=C(\C#N)C(N)=S)cc(C(C)(C)C)c1O classification=t
compound="S=C(S)OC1CC2CC1C1CCCC21 (stereo unspecified)" classification=f
compound=COc1ccc2c(c1)c(CC(=O)O)c(C)n2C(=O)c1ccccc1 classification=f

Please let me know the test result on file for COC(=O)[C@H]1[C@H]2C[C@H]3c4[nH]c5ccccc5c4CCN3C[C@H]2CC[C@@H]1O .
f

Please let me know the test result on file for C=CCNc1ncnc2ccc(Br)cc12 .
t

Please let me know the test result on file for CCCCCCCCCCCCCCCCCCOC[C@H](COP(=O)([O-])OCC[N+](C)(C)C)OC .
f

Please let me know the test result on file for Cn1c(=O)c2[nH]c(-c3ccccc3)nc2n(C)c1=O .
f

Please let me know the test result on file for O=C(c1ccc2c(c1)OCCO2)N1CCCCC1 .
f

Please let me know the test result on file for Cc1cccc(C)c1OCC(N)C(C)C (stereo unspecified) .
f

---

system: Progesterone receptor (Homo sapiens) (UniProt P06401)
Sequence (P06401 whole entry, looked up): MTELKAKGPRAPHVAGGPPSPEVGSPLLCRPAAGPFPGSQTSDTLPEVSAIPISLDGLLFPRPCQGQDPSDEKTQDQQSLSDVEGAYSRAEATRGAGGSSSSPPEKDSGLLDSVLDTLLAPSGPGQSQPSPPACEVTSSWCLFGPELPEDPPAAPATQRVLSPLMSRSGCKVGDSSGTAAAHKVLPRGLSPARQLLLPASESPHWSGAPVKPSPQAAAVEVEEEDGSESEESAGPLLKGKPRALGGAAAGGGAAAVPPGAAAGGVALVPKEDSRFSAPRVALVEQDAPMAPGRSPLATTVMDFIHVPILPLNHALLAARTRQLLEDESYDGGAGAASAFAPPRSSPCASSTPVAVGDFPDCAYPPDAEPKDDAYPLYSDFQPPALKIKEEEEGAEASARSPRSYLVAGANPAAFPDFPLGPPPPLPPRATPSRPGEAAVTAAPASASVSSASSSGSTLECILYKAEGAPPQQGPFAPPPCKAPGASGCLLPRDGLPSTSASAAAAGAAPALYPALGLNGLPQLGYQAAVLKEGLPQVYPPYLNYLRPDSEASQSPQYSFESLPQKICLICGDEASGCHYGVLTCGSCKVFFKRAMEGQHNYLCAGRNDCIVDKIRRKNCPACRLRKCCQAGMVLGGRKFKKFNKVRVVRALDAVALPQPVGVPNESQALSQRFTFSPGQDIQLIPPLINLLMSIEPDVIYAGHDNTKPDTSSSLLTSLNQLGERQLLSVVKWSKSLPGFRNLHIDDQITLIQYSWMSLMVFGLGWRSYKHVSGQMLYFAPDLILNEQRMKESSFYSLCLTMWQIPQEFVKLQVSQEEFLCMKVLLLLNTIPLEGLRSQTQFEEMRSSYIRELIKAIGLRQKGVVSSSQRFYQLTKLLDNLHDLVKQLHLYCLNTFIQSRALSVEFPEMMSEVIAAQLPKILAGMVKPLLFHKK
assay.summary: qHTS assay to identify small molecule antagonists of the progesterone receptor (PR) signaling pathway (AID 1346795)
measurement.setup: PR-UAS-bla HEK293T, beta-lactamase FRET ratio, 16 h; series mostly up to 92.4 µM
Results filed as inconclusive are left out. Active and inactive are the calls of the source. The call rests on the fitted dose curve; in most records, active means well fitted inhibition curve with a large enough effect in the signal ratio in the repeat runs (not every such curve was filed as active); inconclusive means weak or mixed curves; inactive means flat fitted curve, though single readings scatter; the % refers to the signal ratio.
Bench note: report the call from 1 (yes) = active, 0 (no) = inactive

molecule=CC1(C)[C@H](C(=O)OCc2cccc(Oc3ccccc3)c2)[C@@H]1C=C(Cl)Cl classification="0 (no)"
molecule="CCOC(=O)C1=NN(c2ccc(Cl)cc2Cl)C(C)(C(=O)OCC)C1 (configuration not stated)" classification="1 (yes)"
molecule=O=C(Cl)c1ccc(Cl)cc1Cl classification="0 (no)"
molecule=O=C1CCC/C=C\CCCCCCCCCC1 classification="1 (yes)"
molecule=CC/C=C(\C)C=O classification="0 (no)"
molecule=CC(C)(C)C1=CC(=O)C(C(C)(C)C)=CC1=O classification="0 (no)"
molecule=O=C1OCc2ccccc21 classification="0 (no)"
molecule=O=c1cc[nH]cc1 classification="0 (no)"

Please let me know the test result on file for NCc1cccc(C2CCN(C(=O)c3ccc(C#Cc4ccccc4F)o3)CC2)c1 .
1 (yes)

Please let me know the test result on file for Cn1ccnc1 .
0 (no)

Please let me know the test result on file for O=C(Nc1ccccc1)c1cc(Cl)ccc1O .
1 (yes)

Please let me know the test result on file for CC(c1cc(C(C)(C)C)cc(C(C)(C)C)c1O)c1cc(C(C)(C)C)cc(C(C)(C)C)c1O .
0 (no)

Please let me know the test result on file for CCN(CC)c1ccc2c(c1)Oc1cc(N(CC)CC)ccc1C21OC(=O)c2ccccc21 .
0 (no)

Please let me know the test result on file for Clc1ccc2c(Cl)ccnc2c1 .
0 (no)

Please let me know the test result on file for CCCCCCCC/C=C\CCCCCCCC(=O)N(CCO)CCO .
1 (yes)

Please let me know the test result on file for CCCCCCCCOC(=O)c1cc(O)c(O)c(O)c1 .
1 (yes)

Please let me know the test result on file for CSc1nnc(C(C)(C)C)c(=O)[nH]1 .
0 (no)

Please let me know the test result on file for O=C1OC(=O)c2cc(-c3ccc4c(c3)C(=O)OC4=O)ccc21 .
0 (no)

Please let me know the test result on file for CCCC(C)C=O (configuration not stated) .
0 (no)

Please let me know the test result on file for C=CC(=O)O[C@H]1C[C@@H]2CC[C@@]1(C)C2(C)C .
0 (no)

Please let me know the test result on file for C/C=C/C(=O)C1=C(C)C=CCC1(C)C .
0 (no)

Please let me know the test result on file for NCc1ccco1 .
0 (no)

Please let me know the test result on file for Cn1c(=O)[nH]c2ncn(C)c2c1=O .
0 (no)

Please let me know the test result on file for CC(Cc1ccc(O)c(O)c1)C(C)Cc1ccc(O)c(O)c1 (configuration not stated) .
1 (yes)

Please let me know the test result on file for CCC(C)(C)c1ccc(CC(C)CN2C[C@@H](C)O[C@@H](C)C2)cc1 (some centres not stated) .
0 (no)

Please let me know the test result on file for C=CCc1cc(S(=O)(=O)c2ccc(O)c(CC=C)c2)ccc1O .
1 (yes)

Please let me know the test result on file for O=[N+]([O-])c1ccc(CO)cc1 .
0 (no)

---

assay.summary: A CellTox Green Cytotoxicity Assay to monitor cytotoxicity in HEK293 cells - 8 hour (AID 1224884); also: % is scaled to controls: 0 for no effect and ±100 for the full control effect; nearly all actives have a fitted effect of over 35% in size
measurement.setup: CellTox Green fluorescence; series mostly up to 76.8 µM
Results filed as inconclusive are left out. Activity calls are given as the source filed them. The call rests on the fitted dose curve; in most records, active means well fitted activation curve with a large enough effect in the repeat runs; inconclusive means weak or mixed curves; inactive means flat fitted curve, though single readings scatter.
measured.endpoint: Potency

compound=SC1CCCCC1 result=inactive
compound=CCN(CC)c1ccc(C=O)cc1 result=inactive
compound=COc1cc(OC)nc(NC(=O)NS(=O)(=O)Nc2ccccc2C(=O)N(C)C)n1 result=inactive
compound="CCC(O)CO (stereo not given)" result=inactive
compound=O=C1OC(=O)c2cc(-c3ccc4c(c3)C(=O)OC4=O)ccc21 result=inactive

Which Potency value is on record for CC(C=O)c1ccccc1 (stereo not given) ?
inactive

---

assay.summary: qHTS assay to identify small molecule antagonists of the glucocorticoid receptor (GR) signaling pathway - cell viability counter screen (AID 720693); also: nearly all actives have a fitted effect of over 55% in size
measurement.setup: GR-bla HeLa viability, CellTiter-Glo luminescence, 18 h, with 5 nM dexamethasone present; series mostly up to 58.5 µM
Results filed as inconclusive are left out. The source made the active and inactive calls. The call rests on the fitted dose curve; in most records, active means well fitted cell-killing curve with a large enough effect in the repeat runs; inconclusive means weak or mixed curves, or effect the other way; inactive means no such curve, though single readings can be large or run the other way.
Bench note: report the call from yes (1) = active, no (0) = inactive

Please let me know the test result on file for C=CC(N)CCC(=O)O (centres undefined) .
no (0)

Please let me know the test result on file for C1CCc2nnnn2CC1 .
no (0)

Please let me know the test result on file for CN1CC[C@H](c2c(O)cc(O)c3c(=O)cc(-c4ccccc4Cl)oc23)[C@H](O)C1 .
yes (1)

Please let me know the test result on file for CCC(=O)OC(OP(=O)(CCCCc1ccccc1)CC(=O)N1C[C@H](C2CCCCC2)C[C@H]1C(=O)O)C(C)C (some centres undefined) .
no (0)

Please let me know the test result on file for NC(=O)[C@H]1O[C@@H](O)[C@H](O)[C@@H](O)[C@@H]1O .
no (0)

Please let me know the test result on file for COc1cccc2c1[C@@H]1CN(CCCCn3c(=O)[nH]c4c(sc5ncc(-c6ccccc6)nc54)c3=O)C[C@@H]1CO2 .
no (0)

Please let me know the test result on file for CCCOC(=O)c1ccc(O)cc1 .
no (0)

Please let me know the test result on file for FC(F)(F)COCC(F)(F)F .
no (0)

Please let me know the test result on file for CO[C@H]1C[C@H](O[C@H]2[C@H](C)[C@@H](O[C@@H]3O[C@H](C)C[C@H](N(C)C)[C@H]3O)[C@@H](C)C[C@]3(CO3)C(=O)[C@H](C)[C@@H](O)[C@@H](C)[C@@H](C)OC(=O)[C@@H]2C)O[C@@H](C)[C@@H]1O .
no (0)
